# System: Caco-2
# Protocol Notes: cell viability relative to DMSO; higher = less toxic
# Protocol Conditions: 72 h; 1 nM
Outcome Measure: cell viability (%)

>  <Compound>
O=C(O)[C@@H]1C[C@@H](O)CN1 [L-hydroxyproline]

>  <Assay Value>
80.5

$$$$
>  <Compound>
C[C@@H](N)Cc1c[nH]c2ccc(O)cc12

>  <Assay Value>
96.1

$$$$
>  <Compound>
N[C@H]1C[C@@H]1c1ccccc1 (racemic)

>  <Assay Value>
90.7

$$$$
>  <Compound>
Nc1ncnc2c1ncn2CCOCP(=O)(O)O

>  <Assay Value>
106

$$$$
>  <Compound>
COCCNC(=O)COc1ccc(OCCNC[C@H](O)COc2ccccc2)cc1

>  <Assay Value>
95.5

$$$$
>  <Compound>
O=C(O)c1ccc2c(c1)C(=O)N(c1cccc(Oc3ccc([N+](=O)[O-])cc3)c1)C2=O

>  <Assay Value>
92.5

$$$$
>  <Compound>
CCCCCCC[N+](CC)(CC)CCCCc1ccc(Cl)cc1

>  <Assay Value>
114

$$$$
>  <Compound>
O=C(NO)c1cnc(N2CCN(S(=O)(=O)c3ccc4ccccc4c3)CC2)nc1

>  <Assay Value>
104

$$$$
>  <Compound>
CC(C)(C)NCc1cc(Nc2ccnc3cc(Cl)ccc23)c2c(c1O)CCCC2 [naphthoquine-phosphate]

>  <Assay Value>
108

$$$$
>  <Compound>
O=C1NC(=O)c2c1c1c3ccccc3[nH]c1c1[nH]c3ccccc3c21

>  <Assay Value>
98.1

$$$$
>  <Compound>
C=C1CC[C@@]2(O)[C@H]3Cc4ccc(O)c5c4[C@@]2(CCN3CC2CC2)[C@H]1O5

>  <Assay Value>
95.5

$$$$
>  <Compound>
O=c1cc(-c2ccccc2)oc2cc(O)cc(O)c12

>  <Assay Value>
99.4

$$$$
>  <Compound>
C[N+]1(C)CCC(OC(=O)C(O)(c2ccccc2)C2CCCC2)C1 (centres undefined) [glycopyrrolate]

>  <Assay Value>
104

$$$$
>  <Compound>
CCN(CC)Cc1ccc2cc(COC(=O)Nc3ccc(C(=O)NO)cc3)ccc2c1

>  <Assay Value>
97.8

$$$$

* * *

Measured cell viability, listed per entry for reference.
# System: Vero E6
# Protocol Notes: cell viability relative to DMSO; higher = less toxic
# Protocol Conditions: 72 h; 1000 nM

>  <Molecule>
Fc1ccc(C(OCCN2CCN(CCCc3ccccc3)CC2)c2ccc(F)cc2)cc1 [vanoxerine]

>  <cell viability [%]>
97.1

$$$$
>  <Molecule>
O=C(c1ccc(OCCCc2c[nH]cn2)cc1)C1CC1 [ciproxifan]

>  <cell viability [%]>
101

$$$$
>  <Molecule>
CC1(C)NC(=O)N(c2ccc([N+](=O)[O-])c(C(F)(F)F)c2)C1=O [nilutamide]

>  <cell viability [%]>
94.8

$$$$
>  <Molecule>
CC(C)(C)[C@]1(O)CCN2C[C@H]3c4ccccc4CCc4cccc(c43)[C@@H]2C1 [butaclamol]

>  <cell viability [%]>
98

$$$$
>  <Molecule>
CCCCCCCC/C=C\CCCCCCCC(N)=O [oleamide]

>  <cell viability [%]>
100

$$$$
>  <Molecule>
COc1ccc(-c2ccc(=N)n(CCCC(=O)O)n2)cc1 [gabazine]

>  <cell viability [%]>
95.9

$$$$
>  <Molecule>
Nc1ncnc2c1c(-c1cccc(OCc3ccccc3)c1)cn2C1CC(CN2CCCC2)C1 (stereo in doubt) [NVP-ADW742]

>  <cell viability [%]>
98.1

$$$$
>  <Molecule>
CCNCCCNCCCCNCCCNCC [1,12-Besm]

>  <cell viability [%]>
97.5

$$$$
>  <Molecule>
COC(=O)N1CC[C@@H]2[C@H]1CCC[C@@]2(O)C#Cc1cccc(C)c1 [mavoglurant]

>  <cell viability [%]>
104

$$$$
>  <Molecule>
COc1ccccc1OC(=O)C(C)c1ccc(CC(C)C)cc1 (stereo not given) [metoxibutropate]

>  <cell viability [%]>
98.7

$$$$

src = the supplement of paper PMC13380429
